Test system: splenic lymphocytes
PROTOCOL_SUMMARY: Proliferation of splenic lymphocytes in mice (ConA, MTT)
Assay type: cell-based
CONDITION_LABEL: polypeptide dose 0.05 μM, ConA-stimulated mouse splenic lymphocytes, 48 h
Peptide text beside a SMILES is read from it. * marks the point of attachment. X74 = O=C1C=CC(=O)N1c1cccc(CCCCCCCCCCC(=O)*)c1; X84 = O=C1C=CC(=O)N1c1ccccc1CCCCCCCCCCCCC(=O)*; X64 = O=C1C=CC(=O)N1c1cccc(CCCCCCCCCC(=O)*)c1; X59 = O=C1C=CC(=O)N1c1cccc(CCCCCCCCC(=O)*)c1; X66 = O=C1C=CC(=O)N1c1cccc(CCCCCCCC(=O)*)c1; X75 = O=C1C=CC(=O)N1c1cccc(CC(=O)*)c1
Lab note - cut at 10% for Inhibition rate (%): fulfilled if strictly below, not fulfilled if not.

Examples with answers:
C[C@H](NC(=O)CNC(=O)[C@H](CCCNC(=N)N)NC(=O)CCCCCCCCCCc1cccc(N2C(=O)C=CC2=O)c1)C(=O)N[C@@H](CC(=O)O)C(=O)N[C@@H](CCCNC(=N)N)C(=O)N[C@@H](C)C(=O)NCC(=O)NCC(=O)NCC(=O)NCC(=O)N[C@@H](CCCNC(=N)N)C(=O)NCC(=O)N[C@@H](CC(=O)O)C(=O)O [X34] (X74-RGADRAGGGGRGD-OH) : not fulfilled
C[C@H](NC(=O)CNC(=O)[C@H](CCCNC(=N)N)NC(=O)CCCCCCCc1cccc(N2C(=O)C=CC2=O)c1)C(=O)N[C@@H](CC(=O)O)C(=O)N[C@@H](CCCNC(=N)N)C(=O)N[C@@H](C)C(=O)NCC(=O)NCC(=O)NCC(=O)NCC(=O)N[C@@H](CCCNC(=N)N)C(=O)NCC(=O)N[C@@H](CC(=O)O)C(=O)O [X31] (X66-RGADRAGGGGRGD-OH) : fulfilled
C[C@H](NC(=O)CNC(=O)[C@H](CCCNC(=N)N)NC(=O)Cc1cccc(N2C(=O)C=CC2=O)c1)C(=O)N[C@@H](CC(=O)O)C(=O)N[C@@H](CCCNC(=N)N)C(=O)N[C@@H](C)C(=O)NCC(=O)NCC(=O)NCC(=O)NCC(=O)N[C@@H](CCCNC(=N)N)C(=O)NCC(=O)N[C@@H](CC(=O)O)C(=O)O [X25] (X75-RGADRAGGGGRGD-OH) : not fulfilled
C[C@H](NC(=O)CNC(=O)[C@H](CCCNC(=N)N)NC(=O)CCCCCCCCc1cccc(N2C(=O)C=CC2=O)c1)C(=O)N[C@@H](CC(=O)O)C(=O)N[C@@H](CCCNC(=N)N)C(=O)N[C@@H](C)C(=O)NCC(=O)NCC(=O)NCC(=O)NCC(=O)N[C@@H](CCCNC(=N)N)C(=O)NCC(=O)N[C@@H](CC(=O)O)C(=O)O [X32] (X59-RGADRAGGGGRGD-OH) : fulfilled
C[C@H](NC(=O)CNC(=O)[C@H](CCCNC(=N)N)NC(=O)CCCCCCCCCCCCc1ccccc1N1C(=O)C=CC1=O)C(=O)N[C@@H](CC(=O)O)C(=O)N[C@@H](CCCNC(=N)N)C(=O)N[C@@H](C)C(=O)NCC(=O)NCC(=O)NCC(=O)NCC(=O)N[C@@H](CCCNC(=N)N)C(=O)NCC(=O)N[C@@H](CC(=O)O)C(=O)O [X24] (X84-RGADRAGGGGRGD-OH) : not fulfilled

[ask] For C[C@H](NC(=O)CNC(=O)[C@H](CCCNC(=N)N)NC(=O)CCCCCCCCCc1cccc(N2C(=O)C=CC2=O)c1)C(=O)N[C@@H](CC(=O)O)C(=O)N[C@@H](CCCNC(=N)N)C(=O)N[C@@H](C)C(=O)NCC(=O)NCC(=O)NCC(=O)NCC(=O)N[C@@H](CCCNC(=N)N)C(=O)NCC(=O)N[C@@H](CC(=O)O)C(=O)O [X33] (X64-RGADRAGGGGRGD-OH) , is the recorded Inhibition rate (%) below the cut-off of 10%?
[reply] not fulfilled

###

System: human retinal capillary endothelial cells (HRCECs)
PROTOCOL_SUMMARY: MTT proliferation inhibition on HRCECs
Type: cell-based
CONDITION_LABEL: 48 h, dose 0.05 μM
Peptide text beside a SMILES is read from it. * marks the point of attachment. X65 = O=C1C=CC(=O)N1c1cccc(CCCCCCCCCCCCC(=O)*)c1; X52 = O=C1C=CC(=O)N1c1ccccc1CCCCCCCC(=O)*; X79 = O=C1C=CC(=O)N1c1cccc(CCC(=O)*)c1
Measured Inhibition rate (%), listed per entry.
Answer with a number only, understood to be in %*.

C[C@H](NC(=O)CNC(=O)[C@H](CCCNC(=N)N)NC(=O)CCCCCCCc1ccccc1N1C(=O)C=CC1=O)C(=O)N[C@@H](CC(=O)O)C(=O)N[C@@H](CCCNC(=N)N)C(=O)N[C@@H](C)C(=O)NCC(=O)NCC(=O)NCC(=O)NCC(=O)N[C@@H](CCCNC(=N)N)C(=O)NCC(=O)N[C@@H](CC(=O)O)C(=O)O [X19] (X52-RGADRAGGGGRGD-OH) : 51.03
C[C@H](NC(=O)CNC(=O)[C@H](CCCNC(=N)N)NC(=O)CCCCCCCCCCCCc1cccc(N2C(=O)C=CC2=O)c1)C(=O)N[C@@H](CC(=O)O)C(=O)N[C@@H](CCCNC(=N)N)C(=O)N[C@@H](C)C(=O)NCC(=O)NCC(=O)NCC(=O)NCC(=O)N[C@@H](CCCNC(=N)N)C(=O)NCC(=O)N[C@@H](CC(=O)O)C(=O)O [X36] (X65-RGADRAGGGGRGD-OH) : 55.25

[ask] So what's the measured Inhibition rate (%) for this one? C[C@H](NC(=O)CNC(=O)[C@H](CCCNC(=N)N)NC(=O)CCc1cccc(N2C(=O)C=CC2=O)c1)C(=O)N[C@@H](CC(=O)O)C(=O)N[C@@H](CCCNC(=N)N)C(=O)N[C@@H](C)C(=O)NCC(=O)NCC(=O)NCC(=O)NCC(=O)N[C@@H](CCCNC(=N)N)C(=O)NCC(=O)N[C@@H](CC(=O)O)C(=O)O [X26] (X79-RGADRAGGGGRGD-OH)
[reply] 41.47

###

PROTOCOL_SUMMARY: Half-lives and pharmacokinetic parameters of polypeptides vs HM-1
CONDITION_LABEL: in vivo, T1/2β (half-life)
Peptide text beside a SMILES is read from it. * marks the point of attachment. X53 = O=C1C=CC(=O)N1CCOCCOCCOCCOCCCCCCC(=O)*; X27 = O=C1C=CC(=O)N1CCOCCOCCOCCOCCCCCC(=O)*; X19 = O=C1C=CC(=O)N1CCOCCOCCOCCOCCOCC(=O)*; X47 = O=C1C=CC(=O)N1c1ccccc1CCCCC(=O)*; X62 = O=C1C=CC(=O)N1CCCCCCCCCCCCC(=O)*; X57 = O=C1C=CC(=O)N1CCCCCCCC(=O)*
MEASURED_PARAMETER: half-life
Answer with the value and then the unit.

C[C@H](NC(=O)CNC(=O)[C@H](CCCNC(=N)N)NC(=O)CCCCc1ccccc1N1C(=O)C=CC1=O)C(=O)N[C@@H](CC(=O)O)C(=O)N[C@@H](CCCNC(=N)N)C(=O)N[C@@H](C)C(=O)NCC(=O)NCC(=O)NCC(=O)NCC(=O)N[C@@H](CCCNC(=N)N)C(=O)NCC(=O)N[C@@H](CC(=O)O)C(=O)O [X16] (X47-RGADRAGGGGRGD-OH) : 39 h
C[C@H](NC(=O)CNC(=O)[C@H](CCCNC(=N)N)NC(=O)CCCCCOCCOCCOCCOCCN1C(=O)C=CC1=O)C(=O)N[C@@H](CC(=O)O)C(=O)N[C@@H](CCCNC(=N)N)C(=O)N[C@@H](C)C(=O)NCC(=O)NCC(=O)NCC(=O)NCC(=O)N[C@@H](CCCNC(=N)N)C(=O)NCC(=O)N[C@@H](CC(=O)O)C(=O)O [X74] (X27-RGADRAGGGGRGD-OH) : 41.8 h
C[C@H](NC(=O)CNC(=O)[C@H](CCCNC(=N)N)NC(=O)CCCCCCCN1C(=O)C=CC1=O)C(=O)N[C@@H](CC(=O)O)C(=O)N[C@@H](CCCNC(=N)N)C(=O)N[C@@H](C)C(=O)NCC(=O)NCC(=O)NCC(=O)NCC(=O)N[C@@H](CCCNC(=N)N)C(=O)NCC(=O)N[C@@H](CC(=O)O)C(=O)O [X7] (X57-RGADRAGGGGRGD-OH) : 42.8 h
C[C@H](NC(=O)CNC(=O)[C@H](CCCNC(=N)N)NC(=O)COCCOCCOCCOCCOCCN1C(=O)C=CC1=O)C(=O)N[C@@H](CC(=O)O)C(=O)N[C@@H](CCCNC(=N)N)C(=O)N[C@@H](C)C(=O)NCC(=O)NCC(=O)NCC(=O)NCC(=O)N[C@@H](CCCNC(=N)N)C(=O)NCC(=O)N[C@@H](CC(=O)O)C(=O)O [X77] (X19-RGADRAGGGGRGD-OH) : 42.9 h

[ask] So what's the measured half-life for this one? C[C@H](NC(=O)CNC(=O)[C@H](CCCNC(=N)N)NC(=O)CCCCCCOCCOCCOCCOCCN1C(=O)C=CC1=O)C(=O)N[C@@H](CC(=O)O)C(=O)N[C@@H](CCCNC(=N)N)C(=O)N[C@@H](C)C(=O)NCC(=O)NCC(=O)NCC(=O)NCC(=O)N[C@@H](CCCNC(=N)N)C(=O)NCC(=O)N[C@@H](CC(=O)O)C(=O)O [X75] (X53-RGADRAGGGGRGD-OH)
[reply] 33.1 h

[ask] Same for C[C@H](NC(=O)CNC(=O)[C@H](CCCNC(=N)N)NC(=O)CCCCCCCCCCCCN1C(=O)C=CC1=O)C(=O)N[C@@H](CC(=O)O)C(=O)N[C@@H](CCCNC(=N)N)C(=O)N[C@@H](C)C(=O)NCC(=O)NCC(=O)NCC(=O)NCC(=O)N[C@@H](CCCNC(=N)N)C(=O)NCC(=O)N[C@@H](CC(=O)O)C(=O)O [X12] (X62-RGADRAGGGGRGD-OH)
[reply] 36.2 h
